Molecular target: Muscarinic acetylcholine receptor M1 (Homo sapiens) (UniProt P11229)
Sequence (P11229 whole entry, looked up): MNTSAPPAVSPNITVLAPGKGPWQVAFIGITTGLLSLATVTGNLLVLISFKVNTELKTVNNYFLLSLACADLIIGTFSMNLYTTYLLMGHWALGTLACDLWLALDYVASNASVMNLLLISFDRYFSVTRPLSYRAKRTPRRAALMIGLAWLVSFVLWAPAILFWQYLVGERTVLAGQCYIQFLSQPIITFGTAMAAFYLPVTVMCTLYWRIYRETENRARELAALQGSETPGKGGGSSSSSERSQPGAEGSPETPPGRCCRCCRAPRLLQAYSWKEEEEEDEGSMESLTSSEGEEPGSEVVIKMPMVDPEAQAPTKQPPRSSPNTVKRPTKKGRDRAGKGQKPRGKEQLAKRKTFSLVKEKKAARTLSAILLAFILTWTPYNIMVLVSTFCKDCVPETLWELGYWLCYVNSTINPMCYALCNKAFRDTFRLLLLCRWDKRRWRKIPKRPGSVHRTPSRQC
Test: Cholinergic receptor muscarinic 1 (CHRM1) small molecule antagonists, cell-based qHTS assay (AID 1963588); also: nearly all actives have a fitted effect of over 40% in size
Conditions: CHRM1-CHO antagonist mode, calcium flux fluorescence; series mostly up to 61.5 µM
Inconclusive results are not listed. Calls of active or inactive are those of the source. Calls follow the shape of the full dose curve. Peptide text beside a SMILES is read from it.
In this exercise, the only acceptable responses are t for active, f for inactive

These recorded examples may help you get a feel for the data.
# compound, study target, group
measured = [
    ("N#CCCl", "Muscarinic acetylcholine receptor M1 (Homo sapiens) (UniProt P11229)", "f"),
    ("CN1C(=S)CN=C(c2ccccc2)c2cc(Cl)ccc21", "Muscarinic acetylcholine receptor M1 (Homo sapiens) (UniProt P11229)", "f"),
]

Ask: Kindly provide the recorded test outcome for the following compound: CC(=O)N[C@@H](CO)C(=O)N[C@@H](CC(=O)O)C(=O)N[C@@H](CCCCN)C(=O)N1CCC[C@H]1C(=O)O (Ac-SDKP-OH)
Result: f

Ask: Status in this test for N#C/C(N)=C(/N)C#N ?
Result: f

Ask: Look up the recorded call for CCSCc1ccccc1OC(=O)NC in this test.
Result: f

Ask: Query: recorded result category for C[C@H]1[C@H](c2ccc(Cl)cc2)SC(=O)N1C(=O)NC1CCCCC1 in this test
Result: f

Ask: Check the results log: what was the call for Oc1ccc2[nH]cc(CCCCN3CC=C(c4ccccc4)CC3)c2c1 ?
Result: f

Ask: For this compound, state the assay outcome: CC(C)C(Nc1ccc(C(F)(F)F)cc1Cl)C(=O)OC(C#N)c1cccc(Oc2ccccc2)c1 (stereo unspecified)
Result: f

Ask: Tell me the assay call for Oc1ccc2c3c1O[C@H]1[C@@H](O)C=C[C@H]4[C@@H](C2)NCC[C@@]341 please.
Result: f

Ask: Test call for this compound, please: O=C(CCl)C(Cl)Cl
Result: f

Ask: Field: outcome | Entry: CSCCCN=C=S
Result: f

Ask: Just curious, what result did CCCN(CC)CC1COC2(CCC(C(C)(C)C)CC2)O1 (stereo unspecified) get here?
Result: f

Ask: Please indicate how the test categorized CC(C)(C)C(O)/C(=C\c1ccc(Cl)cc1Cl)n1cncn1 (stereo unspecified) .
Result: f

Ask: Assay outcome for CC(CC(C(N)=O)(c1ccccc1)c1ccccc1)N(C)C (stereo unspecified) : what was it?
Result: t

Ask: Dear all, I need the recorded test outcome for NC(=O)C(Cl)Cl , thank you.
Result: f

Ask: Tell me the recorded outcome of this test for CCOC(=O)[C@]1(c2ccccc2)Oc2ccccc2[C@@H]1N .
Result: t

Ask: Assay result, entry CC(=O)c1cc2c(cc1C)C(C)(C)C(C)CC2(C)C (stereo unspecified) — outcome?
Result: f

Ask: Test call for this compound, please: CCCSP(=S)(OCC)Oc1ccc(Cl)cc1Cl (stereo unspecified)
Result: f

Ask: Dear all, I need the recorded test outcome for COC1=CC(=O)O[C@@H](/C=C/c2ccc3c(c2)OCO3)C1 , thank you.
Result: f

Ask: What did this assay record as the result for CCC(C)(C)O ?
Result: f

---

Assay: cAMP Responsive Elements (CRE) small molecule antagonists, cell-based qHTS assay (AID 1963591); also: % is scaled to controls: 0 for no effect and ±100 for the full control effect
Settings: CRE-bla HEK293T, beta-lactamase FRET ratio; series mostly up to 92.4 µM
Records with an inconclusive call do not appear. Active and inactive are the calls of the source. The call rests on the fitted dose curve; in most records, active means well fitted inhibition curve with a large enough effect in the signal ratio in the repeat runs (not every such curve was filed as active); inconclusive means weak or mixed curves, or effect the other way; inactive means flat fitted curve, though single readings scatter; the % refers to the signal ratio.
Listed next: entries and their corresponding activity change, negative = inhibition.

# compound, activity change, negative = inhibition
measured = [
    ("Cc1ccc2nc3sc(=O)sc3nc2c1", "1.33% [at 18.9 µM] (inactive)"),
    ("CC(=O)[O-].CC(=O)[O-].CC(=O)[O-].[Sb+3]", "-4.85% [at 3.27 µM] (inactive)"),
    ("CC(=O)OCC1=C(C(=O)O)N2C(=O)[C@@H](N)[C@H]2SC1", "-7.18% [at 18.9 µM] (inactive)"),
    ("CCCCCCCCCCCCN=C(N)N", "1.77% [at 3.27 µM] (inactive)"),
    ("O=C1c2ccccc2C(=O)c2ccccc21", "-5.21% [at 18.9 µM] (inactive)"),
]

Ask: Value lookup for activity change, negative = inhibition; key = CN(C)C(=S)[S-].CN(C)C(=S)[S-].[Cu+2]
Result: -106% [at 18.9 µM] (inactive)

Ask: Query (compound): NCC(CC(=O)O)c1ccc(Cl)cc1 (centres undefined) ; field requested: activity change, negative = inhibition
Result: -4.66% [at 0.349 µM] (inactive)

Ask: Query: activity change, negative = inhibition; subject: CCCCCCC(=O)CCCCCC/C=C/C[C@@H](O)[C@H](O)[C@@](N)(CO)C(=O)O
Result: -12.2% [at 18.9 µM] (inactive)

Ask: Please report the recorded activity change, negative = inhibition for Cc1ccc2c(c1)C1CN(C)CCC1N2 (centres undefined) .
Result: -7.6% [at 18.9 µM] (inactive)

---

Assay: G protein-coupled receptor (GPCR) small molecule agonists, calcium flux assay: HEK293 wild type cell line counter screen (AID 1920065); also: % is scaled to controls: 0 for no effect and ±100 for the full control effect
Settings: HEK293 WT calcium flux, fluorescence, agonist mode; series mostly up to 57.6 µM
Activity calls are given as the source filed them. The call rests on the fitted dose curve.
property: activation

// known answers, use as guide
# compound, activation
rows = [
    ("Clc1ccc(CSC(Cn2ccnc2)c2ccc(Cl)cc2Cl)cc1 (configuration not stated)", "inactive"),
    ("CN[C@@H](C)[C@H](O)c1ccccc1", "inactive"),
    ("COP(=O)(OC)O/C(C)=C/C(=O)N(C)C", "inactive"),
    ("Brc1cccc(-c2ccccc2)c1", "inactive"),
    ("CCC(C)Nc1c([N+](=O)[O-])cc(C(C)(C)C)cc1[N+](=O)[O-] (configuration not stated)", "inactive"),
]

Ask: Returns the measured activation for the input compound. Input: CCCCCC[N+](=O)[O-]
Result: inactive

Ask: Dear colleague, I am looking for the recorded activation of the following compound: Clc1cc(Cl)c(Cl)c(Cl)c1
Result: inactive

---

Test: p53 small molecule agonists, cell-based qHTS assay with rat liver microsomes (AID 1963578); also: % is scaled to controls: 0 for no effect and ±100 for the full control effect
Details: HCT-116 p53RE-bla, beta-lactamase ratio, 16 h; series mostly up to 66 µM
Inconclusive results are not listed. The source made the active and inactive calls. Calls follow the shape of the full dose curve.
property: activation

Reference set (4 entries):
# compound, activation
records = [
    ("Clc1cc2c(cc1Cl)Oc1cc(Cl)c(Cl)cc1O2", "-1.51% [at 0.249 µM] (inactive)"),
    ("O=C1OC(c2ccc(O)c(S(=O)(=O)O)c2)(c2ccc(O)c(S(=O)(=O)O)c2)c2c(Br)c(Br)c(Br)c(Br)c21", "inactive"),
    ("CC(Cc1ccccc1)NCCn1cnc2c1c(=O)n(C)c(=O)n2C (centres undefined)", "inactive"),
    ("CCC[CH2][Sn]([CH2]CCC)([CH2]CCC)[O][Sn]([CH2]CCC)([CH2]CCC)[CH2]CCC", "-3.45% [at 5.99 µM] (inactive)"),
]

Ask: Consider the compound CCC[CH2][Sn]([CH2]CCC)([CH2]CCC)[CH2]CCC and give its measured activation.
Result: inactive

Ask: What value of activation has been recorded for this entry: O=C1C[C@@H]2OCC=C3CN4CC[C@]56c7ccccc7N1[C@H]5[C@H]2[C@H]3C[C@H]46
Result: inactive

Ask: Any idea what its activation is? The compound is CC(=O)[C@H]1CC[C@H]2[C@@H]3CC[C@H]4C[C@H](O)CC[C@]4(C)[C@H]3C(=O)C[C@]12C
Result: inactive

Ask: I have this compound here, Cc1c(F)c(F)c(COC(=O)C2C(/C=C(\Cl)C(F)(F)F)C2(C)C)c(F)c1F (centres undefined) , and I need its recorded activation.
Result: inactive

Ask: Would you mind telling me what activation value was observed for CCCCCCC[CH2][Sn]([Cl])([Cl])[CH2]CCCCCCC ?
Result: inactive

---

Biological target: Muscarinic acetylcholine receptor M1 (Homo sapiens) (UniProt P11229)
Assay: Cholinergic receptor muscarinic 1 (CHRM1) small molecule agonists, cell-based qHTS assay (AID 1963589); also: % is scaled to controls: 0 for no effect and ±100 for the full control effect; nearly all actives have a fitted effect of over 35% in size
Conditions: CHRM1-CHO cells, agonist mode, calcium flux fluorescence; series mostly up to 76.8 µM
Active and inactive are the calls of the source. Calls follow the shape of the full dose curve.
property: outcome

Below: 10 molecules and their reported outcome.
# molecule, property, result
data = [
    ("[CH3][Hg][Cl]", "outcome", "inactive"),
    ("CCCSP(=O)(OCC)SCCC", "outcome", "inactive"),
    ("Nc1ccc([N+](=O)[O-])cc1", "outcome", "inactive"),
    ("CC(Cc1ccccc1)NCCCCl (configuration not stated)", "outcome", "inactive"),
    ("NC(=O)C(Cl)(Cl)Cl", "outcome", "inactive"),
    ("O=C1C(Cl)C(CCl)CN1c1cccc(C(F)(F)F)c1 (configuration not stated)", "outcome", "inactive"),
    ("OC(c1ccc(Cl)cc1)(c1ccc(Cl)cc1)C(Cl)(Cl)Cl", "outcome", "inactive"),
    ("COC12CC[C@@]3(C[C@@H]1C(C)(O)C(C)(C)C)[C@H]1Cc4ccc(O)c5c4[C@@]3(CCN1CC1CC1)[C@H]2O5 (some centres not stated)", "outcome", "inactive"),
    ("NC(=O)CI", "outcome", "inactive"),
    ("CCCN(CCCl)c1c([N+](=O)[O-])cc(C(F)(F)F)cc1[N+](=O)[O-]", "outcome", "inactive"),
]

Ask: Fill in: outcome of CCCCn1cc[n+](C)c1 (tested in a mixture with another compound) is ___
Result: inactive

Ask: Can you look up the measured outcome of CCC1(c2ccccc2)C(=O)N(COC)C(=O)N(COC)C1=O for me?
Result: inactive
